Where do the numbers come from? From ChEMBL document CHEMBL3885861.

# Species on record: Rattus norvegicus
# test-summary: Open TG-GATES - Regimen: Daily Repeat
# Type: toxicity, organism-based, Sprague-Dawley
# Design: regimen Daily Repeat, gender Male, age 6 weeks
# test-settings: in vivo, po, 0 mg/kg, 72 h, route gavage, dose level Control, time 3 day
measurement-type: TERMINAL_BW (g)
The figure you give is taken to be in g; do not add the unit.

Q: For the compound CS(=O)(=O)Nc1ccc([N+](=O)[O-])cc1Oc1ccccc1 [NIMESULIDE] , give its measured TERMINAL_BW value.
Result: 220.1

Q: Please supply the value of reported TERMINAL_BW for the item `Cc1cccc(Nc2cc(Cl)nc(SCC(=O)O)n2)c1C`
Result: 233.5

Q: For `Cc1cnc(NC(=O)C2=C(O)c3ccccc3S(=O)(=O)N2C)s1` , write its TERMINAL_BW.
Result: 245.1

====

# Species: Rattus norvegicus
# test-summary: Open TG-GATES - Regimen: Daily Repeat
# Type: toxicity, organism-based, Sprague-Dawley
# Set-up: regimen Daily Repeat, gender Male, age 6 weeks
# test-settings: in vivo, po, 0 mg/kg, […], tissue Plasma, route gavage, dose level Control, time 7 day
measurement-type: K (meq/L)
All answers are understood in meq/L, so give the number only.

Q: Determine its reported K: O=C1NC(=O)C(c2ccccc2)(c2ccccc2)N1 [PHENYTOIN]
Result: 4.6

Q: Tell me measured K for COc1ccc(Cl)cc1C(=O)NCCc1ccc(S(=O)(=O)NC(=O)NC2CCCCC2)cc1 [GLYBURIDE] please.
Result: 3.9

Q: Return K for the following molecule: Cc1cccc(Nc2cc(Cl)nc(SCC(=O)O)n2)c1C [PIRINIXIC ACID]
Result: 4

Q: Respond only with K recorded for O=P1(N(CCCl)CCCl)NCCCO1 (stereo not drawn) [CYCLOPHOSPHAMIDE ANHYDROUS]
Result: 4.4

Q: Please give the documented K of Cn1c(=O)c2c(ncn2C)n(C)c1=O [CAFFEINE]
Result: 4.7

Q: Supply measured K of Cc1cnc(NC(=O)C2=C(O)c3ccccc3S(=O)(=O)N2C)s1 [MELOXICAM] in your reply.
Result: 3.8

Q: Retrieve K measured for C=CCO [ALLYL ALCOHOL] and print it.
Result: 3.9

Q: Let me know recorded K for O=C1CN(/N=C/c2ccc(-c3ccc([N+](=O)[O-])cc3)o2)C(O)=N1 [DANTROLENE] , thanks.
Result: 5.1

====

# Organism: Rattus norvegicus
# test-summary: Open TG-GATES - Regimen: Single
# Type: toxicity, organism-based, Sprague-Dawley
# Set-up: regimen Single, gender Male, age 6 weeks
# test-settings: in vivo, po, 0 mg/kg, 3 h, tissue Plasma, route gavage, dose level Control
Consider the following compounds; for each one, report its CRE.
Field: numeric (mg/dL). Do not append units.

Q: Tell me its CRE given CNCCC(Oc1ccc(C(F)(F)F)cc1)c1ccccc1.Cl (stereo not drawn) [FLUOXETINE HYDROCHLORIDE] as the entry.
Result: 0.4

Q: Assign CRE to the following record: `Cc1cnc(NC(=O)C2=C(O)c3ccccc3S(=O)(=O)N2C)s1`
Result: 0.4

Q: State, in one line, measured CRE of CS(=O)(=O)Nc1ccc([N+](=O)[O-])cc1Oc1ccccc1 [NIMESULIDE]
Result: 0.5

Q: Find the measured CRE of `O=C1CN(/N=C/c2ccc(-c3ccc([N+](=O)[O-])cc3)o2)C(O)=N1` and report it.
Result: 0.5

Q: Identify measured CRE associated with `Cc1cccc(Nc2cc(Cl)nc(SCC(=O)O)n2)c1C`
Result: 0.2

Q: For the compound `C=CCO` , give its measured CRE value.
Result: 0.4

Q: Give the value of CRE reported for the following: COc1ccc(Cl)cc1C(=O)NCCc1ccc(S(=O)(=O)NC(=O)NC2CCCCC2)cc1 [GLYBURIDE]
Result: 0.4

Q: Look up and report measured CRE for this entry: `O=C1NC(=O)C(c2ccccc2)(c2ccccc2)N1`
Result: 0.2

====

Answer each item with its documented LDH.
# Species: Rattus norvegicus
# test-summary: Open TG-GATES - Regimen: Daily Repeat
# Type: toxicity, organism-based, Sprague-Dawley
# Design: regimen Daily Repeat, gender Male, age 6 weeks
# test-settings: in vivo, po, 0 mg/kg, […], tissue Plasma, route gavage, dose level Control, time 28 day
Lab book: enter the figure in IU/L, no units written.

Q: Query LDH for COc1ccc(Cl)cc1C(=O)NCCc1ccc(S(=O)(=O)NC(=O)NC2CCCCC2)cc1 [GLYBURIDE]
Result: 143.2

Q: Note down LDH recorded for COc1ccc(O)c(C(C)(C)C)c1.COc1ccc(O)cc1C(C)(C)C [BUTYLATED HYDROXYANISOLE]
Result: 62.2

Q: Query LDH for CS(=O)(=O)Nc1ccc([N+](=O)[O-])cc1Oc1ccccc1 [NIMESULIDE]
Result: 78

Q: Provide LDH value for the following compound: `Cc1cnc(NC(=O)C2=C(O)c3ccccc3S(=O)(=O)N2C)s1`
Result: 187.8
